Test system: K-562 leukemia
Experiment: NCI-60 one-dose screen, 48 h (100 = growth as untreated, 0 = no growth, -100 = all killed)
Details: 10 µM unless noted
This is part of a sample that, as a whole, favours compounds with a hit. Of some 83,000 tested, about 20% had one in any assay. Calls of active or inactive are those of the source. Rule for the calls: active = growth percent below 10; inactive = the rest.
measure: growth

* Cc1ccc(C(=O)Nc2ccc(Cl)cc2C(=O)NCc2ccccc2)cc1 | 30% (inactive)
* O=c1c(O)cccn1CCCNCCCN(CCCn1cccc(O)c1=O)CCCn1cccc(O)c1=O | 117% (inactive)
* O=C(Nc1nc(-c2ccc(Cl)cc2)cs1)c1cc(O)c(O)c(O)c1 | 7.99% (active)
* CCCc1cc(=O)n2c(C(=O)Nc3ccccc3OC)c(C(=O)Nc3ccc(F)cc3)sc2n1 | 3.51% [30 µM] (active)
* COc1ccc(-c2cn(-c3ccccc3)c(-c3ccccc3)n2)cc1OC | 14.8% (inactive)
* CCN(CC)c1ccc(CN(CC(=O)c2ccc(Cl)c(Cl)c2)Cc2ccccc2)cc1 | 103% (inactive)
* COc1cc2c(C#N)n3c(c2cc1OC)C(=O)C(c1ccccc1)Oc1ccccc1-3 (stereo not drawn) | 29.7% (inactive)
* CC/C(=C\c1ccc(N(C)C)cc1)c1nc2ccccc2c(=O)[nH]1 | 71.4% (inactive)
* Cc1c(C)c(N2C(=O)C=CC2=O)c(C)c(C)c1N1C(=O)C=CC1=O | 77.8% (inactive)
* CN(CCOc1ccc(CC2SC(=O)NC2=O)cc1)c1ccccn1 (stereo not drawn) | 118% (inactive)
* CCOC(=O)c1c(C)nc(C)c(C(=O)OCC)c1-c1cccnc1 | 92.4% (inactive)
* CCCCSc1cc(C)nc(N)n1 | 94.8% (inactive)
* COc1cccc(-c2nnc(N)o2)c1 | 98.1% (inactive)

----------
System: COLO 205 colon
Experiment: NCI-60 one-dose screen, 48 h (100 = growth as untreated, 0 = no growth, -100 = all killed)
Details: 10 µM unless noted
Compounds without any hit were thinned out: in the full panel of roughly 83,000, 20% have a hit.
growth listing for selected compounds.
measure: growth (%)

* c1ccc2cc(C[n+]3ccn(CCCCCCCn4cc[n+](Cc5ccc6ccccc6c5)c4)c3)ccc2c1 | 20
* CCCc1nn(C)c2c(=O)[nH]c(-c3cc(S(=O)(=O)N4CCN(C)CC4)ccc3OCC)nc12 | 99.8
* COc1ccc(-c2cc(Cc3cccs3)c(=O)n(Cn3cncn3)n2)cc1 | 117
* COc1ccc(-c2c(N)noc2-c2cc(OC)c3c(c2)OCCO3)cc1 | -75.8
* CC(C)COCC(CN(Cc1ccccc1)c1ccccc1)N1CCCC1 (configuration not stated) | 40.1
* NC(=O)c1ncn([C@@H]2O[C@H](CO)[C@@H](O)[C@H]2O)n1 | 82.6
* Cc1nn(-c2ccc(Cl)cc2)c2nc3c(nc12)C(=O)c1ccccc1-3 | 95.2
* CCCCCCCCCCCCCCCCN=C(CC(=O)O)C(=O)O | 97.9
* O=C1NC(=O)/C(=C\c2ccccc2)C2=C1CCCC2 | -63.2
* CN(C)c1nc(-c2ccco2)n2nc(-c3ccco3)cc2n1 | 116
* CC/C(=C\c1ccc(N(C)C)cc1)c1ccncc1 | 36.1
* Cc1nc2c(O)cccc2cc1CO | 142
* COc1cccc(C2C(C#N)=C(N)Oc3cc(OC)ccc32)c1 (configuration not stated) | -73.4
* CCOC(=O)c1cc(-c2cccnc2)nc2c(Cl)cc(Cl)cc12 | 121
* ClC1=C(Cl)C(Cl)=C(Cl)C1=C/C=C/c1ccccc1 | -90.6
* CCCCCCC(C)(O)c1ccccc1 (configuration not stated) | 114
* O=c1ccn(C2CCCO2)c(=O)[nH]1 (configuration not stated) | 118
* Clc1cccc(Cc2cn3cc(-c4ccccc4)nc3s2)c1 | -36.6
* O=C(/C(=C/c1cccc([N+](=O)[O-])c1)c1ccccc1)c1ccccc1 | 86.3
* CSc1ccc2c(c1)N(CCC1CCCCN1C)c1ccccc1S2 (configuration not stated) | 18.9
* COc1ccc(-c2cncn2-c2ccc(-c3nc4cc(OC)c(OC)c(OC)c4s3)cc2)cc1N | 46.2
* COc1ccc2c(c1)C(=O)/C(=C/c1ccc([N+](=O)[O-])s1)O2 | -64.7
